# TESTED_ON: melanocortin-4 receptor (Homo sapiens, UniProt P32245)
# Construct: expressed in transfected cells; host or cells: HEK293 cells (membrane preparations)
# Sequence (P32245 whole entry): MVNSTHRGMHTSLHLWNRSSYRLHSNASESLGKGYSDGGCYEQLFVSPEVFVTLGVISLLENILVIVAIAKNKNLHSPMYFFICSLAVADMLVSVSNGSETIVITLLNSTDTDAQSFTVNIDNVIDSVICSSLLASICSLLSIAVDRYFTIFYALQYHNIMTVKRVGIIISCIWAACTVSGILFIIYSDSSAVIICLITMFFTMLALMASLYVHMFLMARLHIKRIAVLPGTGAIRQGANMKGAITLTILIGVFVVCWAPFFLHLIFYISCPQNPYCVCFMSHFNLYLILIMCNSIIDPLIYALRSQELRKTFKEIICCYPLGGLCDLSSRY
# TEST_DETAILS: Membrane binding assay (fluorescence polarization, competition with fluorescence labeled NDP-alpha-MSH)
# EXPERIMENTAL_SETUP: read-out: hMC-4R binding assay IC50/μM
PARAMETER: IC50

Would you please look over these solved cases?
compound="Cc1ccnc(-c2nc3ccc(C(=O)N(CCC(C)C)CCC(C)C)cn3c2CCCN2CCCC2)c1 [Example 40]" tested_on="melanocortin-4 receptor (Homo sapiens, UniProt P32245)" parameter=IC50 endpoint_result="0.1 to 1 µM"
compound="CC(C)CCN(CCC(C)C)C(=O)c1ccc2nc(-c3cccnc3N)c(CCCN3CCCC3)n2c1 [Example 90]" tested_on="melanocortin-4 receptor (Homo sapiens, UniProt P32245)" parameter=IC50 endpoint_result="0.1 to 1 µM"
compound="CC(C)CCN(CCC(C)C)C(=O)c1ccc2nc(-c3ccc(=O)n(CCO)c3)c(CCCN3CCCC3)n2c1 [Example 81]" tested_on="melanocortin-4 receptor (Homo sapiens, UniProt P32245)" parameter=IC50 endpoint_result="< 0.1 µM"
compound="CC(C)CCN(CCC(C)C)C(=O)c1ccc2nc(-c3cc[nH]c(=O)c3)c(CCCN(C)C)n2c1 [Example 88]" tested_on="melanocortin-4 receptor (Homo sapiens, UniProt P32245)" parameter=IC50 endpoint_result="0.1 to 1 µM"
compound="CC(C)CCN(CCC(C)C)C(=O)c1ccc2nc(-c3ncco3)c(CCCN3CC[C@H](O)C3)n2c1 [Example 80]" tested_on="melanocortin-4 receptor (Homo sapiens, UniProt P32245)" parameter=IC50 endpoint_result="0.1 to 1 µM"
compound="COc1cccc(-c2nc3ccc(C(=O)N(CCC(C)C)CCC(C)C)cn3c2CCCN2CCC(F)CC2)c1 [Example 30]" tested_on="melanocortin-4 receptor (Homo sapiens, UniProt P32245)" parameter=IC50 endpoint_result="< 0.1 µM"

// below: IC50 requested for another compound
Hi! What's the reported IC50 for CC(C)CCN(CCC(C)C)C(=O)c1ccc2nc(-c3ccc(F)cc3)c(CN3CCC(N)CC3)n2c1 [Example 118] on melanocortin-4 receptor (Homo sapiens, UniProt P32245)?
0.1 to 1 µM
